system: Mus musculus; assay: In vivo evaluation for antimalarial activity against Plasmodium berghei in percentage when administered subcutaneously in mice (Mus musculus); format: functional; design: concentration or dose not given beside the values
Hi there, I'd appreciate the recorded Activity for every entry that follows.
Don't forget the unit after the number, please.

Challenge: Recorded Activity for C[C@@H]1CC[C@H]2[C@@H](C)C(=O)O[C@@H]3O[C@@]4(C)CC[C@@H]1[C@]32OO4 [ARTEMISININ] , please?
Response given: 100%

Challenge: Try this molecule next: CCOC(=O)C[C@H]1CCCCC12OOC1(CCCC[C@H]1CC(=O)OCC)OO2 (some centres undefined)
Response given: 0%

Challenge: Try this molecule next: C#CC[C@@H]1CCCCC12OOC1(CCCC[C@@H]1CC#C)OO2 (some centres undefined)
Response given: 9%

Challenge: Try this molecule next: C[C@@H]1CCCCC12OOC1(CCCC[C@@H]1C)OO2 (some centres undefined) [WR-148999]
Response given: 100%
